- Test system: Plasmodium berghei
- assay.details: Screen against P. berghei liver stage (PbLuc), transformed with Luciferase, at 10uM
- Type: functional, HepG2
- experimental.parameters: tested at 10 uM
Hit rate of the full screen: of about 69,000 compounds, about 8,600 (12%) showed an effect of 50% or more. The entries come from a sample that favours strong results as a whole.
quantity: INHIBITION (%)
Just the number please, in %, no unit attached.

For the molecule "CN1CCN(C(=O)[C@@H]2CC[C@@H]3[C@@H](CCN3c3ncccn3)O2)CC1" , what INHIBITION is on record?
34.6

Given the molecule "CS(=O)(=O)c1ccc(NC(=O)NCCC2=CCCCC2)cc1" , what is its reported INHIBITION?
-165

# INHIBITION lookup, item CC(c1ccco1)N(C(=O)NCc1ccon1)C1CC1 (stereo unspecified)
72.6

Data request, read-out INHIBITION, for "Cc1cn(-c2ccccc2)nc1NS(=O)(=O)c1cc(C(=O)O)ccc1Cl"
25.4

I am curious: what INHIBITION value has been reported for Cc1noc(C)c1CNC(=O)N1CCCC(C)CC1 (stereo unspecified) ?
-30.6

Param item = CC(C)N(C)C(=O)C1CCC(=O)N(CCc2cccc(F)c2)C1 (stereo unspecified) ; retrieve measured INHIBITION.
52.3

Return reported INHIBITION; argument: Cn1cc2c(n1)C(CNCC1CCOCC1)OCC2 (stereo unspecified)
-4.02

Bench note: what INHIBITION did "COc1cc(NC(=O)c2ccc(C)cc2C)c(C(=O)N(C)C)cc1OC" show?
-7.36

// returns reported INHIBITION for input CN1CCOC(CN(C(=O)CN2CCCC2=O)c2nccs2)C1 (stereo unspecified)
48.1

Could you tell me which INHIBITION is on file for "O=C(NC1CC1)[C@H]1CC[C@@H]2[C@@H](CCN2c2ncc(F)cn2)O1" ?
50.1

Name the recorded INHIBITION for COc1ccccc1-c1ccc(C2CCCN(C(C)=O)C2)nc1 (stereo unspecified) .
19.4

What INHIBITION value was documented for this molecule, "O=C(O)[C@@H]1CCCN1c1nccc(Nc2ccccc2)n1" ?
0.618

# input molecule: CN1CCOC(CN(C(=O)CC2CCCC2)c2nccs2)C1 (stereo unspecified) ; wanted: its INHIBITION
55.5

Consider the molecule "CCc1ccsc1C(=O)N1CCN(CC(C)(C)O)CC1" and give its measured INHIBITION.
-13.5

Which measured INHIBITION value corresponds to CC(C)CCCC(C)NC(=O)c1ccc(OCC(N)=O)cc1 (stereo unspecified) ?
56.4

Given the entry CN1CCOC(CN(C(=O)CCc2ccco2)c2nccs2)C1 (stereo unspecified) , report its measured INHIBITION.
43.3

Which INHIBITION reading was recorded for the molecule CCNC(=O)COc1ccc(C(=O)NC(C)CCc2ccco2)cc1 (stereo unspecified) ?
20.6

Look up INHIBITION: CC(C)NCC1OCCc2cn(C)nc21 (stereo unspecified)
55.5

INHIBITION for "CC(C)(C)n1cc(C(=O)N2CCN(Cc3ccccc3F)CC2)cn1" ?
71.4

Return reported INHIBITION; argument: "COc1ccc(CN2CC[C@H]3CO[C@H](CNC(=O)N(C)C)[C@H]3C2)cc1"
12.7

// INHIBITION lookup, key: "CCn1cc(CN2CCC(c3nnc(CN(C)C)n3CC)CC2)cn1"
15.1

Query (molecule): "COCCNC(=O)[C@@H]1CC[C@@H]2[C@@H](CCN2c2ncc(F)cn2)O1" ; field requested: INHIBITION
0.734

Item under review: CCc1cc(CNC(=O)N(C2CC2)C(C)c2ccco2)[nH]n1 (stereo unspecified) . Reported INHIBITION?
55.9

What measured INHIBITION goes with "O=C([C@@H]1CCCN1c1nccc(Nc2ccccc2)n1)N1CCCCC1" ?
78.7

Consider the molecule "CCn1cc(C2CCN(Cc3ccnc(N(C)C)c3)CC2)cn1" and give its measured INHIBITION.
66.7

So what's the measured INHIBITION for this one? "O=C(c1cnn(-c2ccccc2F)c1)N1CCN(CCO)CC1"
-10.3

Look at this molecule and give its reported INHIBITION. "Cc1ccc(CN2CC[C@@H]3[C@@H](CO[C@H]3CN3CCN(C)CC3)C2)cc1"
23.3

Entry CN1CCOC(CN(C(=O)COc2ccccc2)c2nccs2)C1 (stereo unspecified) has what INHIBITION?
-2.53

May I ask what INHIBITION has been recorded for O=C1c2cccnc2OC(CN2CCOCC2)CN1C1CCC1 (stereo unspecified) ?
-10.3

Fill in: INHIBITION of Cc1cnn(CCC(=O)N(CC2CN(C)CCO2)c2nccs2)c1 (stereo unspecified) is ___
-31.6

What measured INHIBITION goes with "CC1CCN(C(=O)[C@@H]2CC[C@@H]3[C@@H](CCN3c3ncc(F)cn3)O2)CC1" ?
62.4

Recorded INHIBITION of O=C(CN1CCCC(O)C1)NC(=O)NCc1cccs1 (stereo unspecified) , please.
43.4

// INHIBITION lookup, key: "Cc1ncsc1CN1C[C@H](C(=O)N2CCCO2)[C@@H]2CCO[C@@H]2C1"
25.1

Fill in: INHIBITION of "CCN(CC)C1CCN(C(=O)NCc2c(C)noc2C)CC1" is ___
50.1

Given the entry "Cn1nc(C2CC2)cc1C(=O)N1CCC(c2nnsc2S(C)(=O)=O)CC1" , report its measured INHIBITION.
18.14

Request the reported INHIBITION associated with "Cc1noc(Cl)c1CCC(=O)N1CCN(Cc2ccncc2)CC1"
1.78

Value lookup for INHIBITION; key = Cc1noc(C)c1CNC(=O)N(C)C1CCN(c2ccccc2)C1=O (stereo unspecified)
31.2

Bench note: what INHIBITION did CC(c1ccco1)N(C(=O)c1cccc(C#N)c1)C1CC1 (stereo unspecified) show?
-11

Look at this molecule and give its reported INHIBITION. "CCCN1CCN(C(=O)c2cnn(-c3ccccc3F)c2)CC1"
-39.9

Param item = CC(C)C(C)(C#N)NC(=O)CN1CCCN(Cc2ccccc2F)CC1 (stereo unspecified) ; retrieve measured INHIBITION.
82.4

Requested read-out: INHIBITION. Entry: "CC(C)(O)CN1CCN(C(=O)c2cnn(-c3ccccc3F)c2)CC1"
58.5

Which INHIBITION reading was recorded for the molecule CCc1cc(CNC(=O)N(C2CC2)C(C)c2ccco2)on1 (stereo unspecified) ?
3.3

Using the record for "O=C(NC1CCCC1)N1CC[C@H]2[C@H]1CCN2c1nncs1" , report its INHIBITION.
26

// query INHIBITION value for entry Cc1nsc2ncc(C(=O)N3CCCC3c3cnn(C)c3)cc12 (stereo unspecified)
19.2

Requested read-out: INHIBITION. Entry: "COc1ccc(CC(=O)N2CCC3(CC2)CCN(CC(C)C)C3=O)cc1"
35.8

For the molecule "COCCNC(=O)[C@H]1CC[C@@H]2[C@@H](CCN2c2ncc(F)cn2)O1" , what INHIBITION is on record?
0.734
